- PROTOCOL_NOTES: Quantitative High-Throughput drug screen in 47 multiple myeloma cell lines against the NCATS MIPE library collection: OPM1_PLB cell viability assay (AID 1918989); further: nearly all actives have a fitted effect of over 40% in size
- PROTOCOL_CONDITIONS: CellTiter-Glo, 48 h; series mostly up to 45.8 µM
Inconclusive results are not listed. Active and inactive are the calls of the source. The call rests on the fitted dose curve; in most records, active means well fitted cell-killing curve with a large enough effect; inconclusive means small, poorly fitted or top-dose-only effect, or effect the other way; inactive means no such curve, though single readings can be large or run the other way.
In this exercise, the only acceptable responses are label 1 for active, label 0 for inactive

Cc1cc(Nc2ncc3c(n2)N(C)C(=O)N(c2cc(NC(=O)c4cccc(C(F)(F)F)c4)ccc2C)C3)n(C)n1    label 1
COC(=O)[C@H](CCCN=C(N)N)NS(=O)(=O)c1ccc(C)cc1    label 0
CC1(C)[C@H](O[C@H]2O[C@H](C(=O)O)[C@@H](O)[C@H](O)[C@H]2O[C@@H]2O[C@H](C(=O)O)[C@@H](O)[C@H](O)[C@H]2O)CC[C@@]2(C)[C@H]1CC[C@]1(C)[C@H]2C(=O)C=C2[C@H]3C[C@@](C)(C(=O)O)CC[C@]3(C)CC[C@]21C    label 0
CN(C)c1ccc2cc(C(=O)N[C@@H](CCCN=C(N)CCl)C(=O)NCc3ccccc3)ccc2c1    label 1
CCc1ccc(C(=O)Nc2cc(CN3CCN(C)CC3)cc(C(F)(F)F)c2)cc1C#Cc1cnc2ccnn2c1    label 1
C[C@H]1O[C@H](O[C@H]2[C@H](O)[C@@H](O)[C@@H](O[C@H]3[C@H](O)[C@@H](O)C(O)O[C@H]3CO)O[C@H]2CO)[C@H](O)[C@@H](O)[C@H]1N[C@H]1C=C(CO)[C@@H](O)[C@H](O)[C@@H]1O (stereo partly specified)    label 0
C=C[C@@H]1CN2CCC1C[C@H]2[C@H](O)c1ccnc2ccc(OC)cc12 (stereo partly specified)    label 0
CC(O)(C#Cc1ccc2c(c1)N(c1nc(N)ncc1Cl)CC2)c1nccs1 (stereo unspecified)    label 1

Q: Please state the recorded outcome for this compound: C[C@@H]1[C@H](C)CC[C@]2(C(=O)O)CC[C@]3(C)C(=CC[C@@H]4[C@@]5(C)C[C@@H](O)[C@H](O)[C@@](C)(CO)[C@H]5CC[C@]43C)[C@@H]12
A: label 0

Q: Please state the recorded outcome for this compound: c1cc(N[C@@H]2CCNC2)nc(-c2cnc3ccc(-c4cn[nH]c4)cn23)c1
A: label 1

Q: Please state the recorded outcome for this compound: Cc1nc(NC(=O)N2CCC[C@@H]2C(N)=O)sc1-c1ccnc(C(C)(C)C(F)(F)F)c1
A: label 1

###

- PROTOCOL_NOTES: Quantitative High-Throughput drug screen in 47 multiple myeloma cell lines against the NCATS MIPE library collection: LP1_DSMZ cell viability assay (AID 1918982); further: nearly all actives have a fitted effect of over 35% in size
- PROTOCOL_CONDITIONS: LP1 myeloma viability, CellTiter-Glo ATP luminescence, 48 h; series mostly up to 45.8 µM
Results filed as inconclusive are left out. Calls of active or inactive are those of the source. Calls come from the whole dose curve; as a rule, active = well fitted cell-killing curve with a large enough effect; inconclusive = small, poorly fitted or top-dose-only effect, or effect the other way; inactive = no such curve, though single readings can be large or run the other way.
In this exercise, the only acceptable responses are T for active, F for inactive

Worked examples, 8 compounds total:
O=C(c1ccc(F)cc1)N1CCC[C@H](c2nc(-c3ccc(F)cc3)no2)C1    F
CCNC(=O)Nc1ccc(-c2nc3c(c(N4CCOC[C@H]4C)n2)CCN(C2COC2)C3)cc1    T
COc1cc2c(cc1OC)[C@@H]1C(=O)c3ccc4c(c3O[C@@H]1CO2)C=CC(C)(C)O4    T
Cc1cc(C(=O)NOCCO)c(Nc2ccc(I)cc2F)n(C)c1=O    F
C[C@@H]1[C@H](C)CC[C@]2(C(=O)O)CC[C@]3(C)C(=CC[C@@H]4[C@@]5(C)C[C@@H](O)[C@H](O)[C@@](C)(CO)[C@H]5CC[C@]43C)[C@@H]12    F
OCCN1C[C@H](O)[C@@H](O)[C@H](O)[C@@H]1CO    F
O=c1[nH]c(=O)n([C@H]2C[C@@H](O)[C@@H](CO)O2)cc1F    T
OC[C@@H](O)[C@@H](O)[C@H](O)[C@@H](O)CO    F

Q: Please state the recorded outcome for this compound: CC(C)C[C@H](NC(=O)[C@@H](NC(=O)c1cccc(-c2ccccc2)n1)[C@@H](C)O)B(O)O
A: T

Q: Please state the recorded outcome for this compound: C=CC(=O)Nc1cccc(Nc2nc(NC3CCC(N(C)C)CC3)nc3c2ncn3C(C)C)c1 (configuration not stated)
A: T

Q: Please state the recorded outcome for this compound: C=C1CCC2[C@](C)(CO)C(O)CC[C@]2(C)C1CC=C1C(=O)OCC1O (some centres not stated)
A: F

Q: Please state the recorded outcome for this compound: C[C@H](CCC(=O)O)[C@H]1CC[C@H]2[C@@H]3[C@H](O)C[C@@H]4C[C@H](O)CC[C@]4(C)[C@@H]3CC[C@]12C
A: F

Q: Please state the recorded outcome for this compound: Oc1cc(-c2nc(-c3ccccc3)[nH]c2-c2ccncc2)ccc1Cl
A: F

Q: Please state the recorded outcome for this compound: O=C(O)[C@H](CC(=O)N1C[C@@H]2CCCC[C@H]2C1)Cc1ccccc1
A: F

Q: Please state the recorded outcome for this compound: C[N+]1(C)[C@@H]2C[C@@H](OC(=O)C(O)(c3cccs3)c3cccs3)C[C@H]1[C@@H]1O[C@@H]12
A: F

Q: Please state the recorded outcome for this compound: Oc1ccc(-c2ccc(-c3cc(Nc4cccc(CNC5CC5)c4)n[nH]3)cc2)c(O)c1
A: T

Q: Please state the recorded outcome for this compound: CC(=O)NCC(=O)N1[C@H]2CC[C@H]1c1cc(Nc3ncc(C(F)(F)F)c(NC4CCC4)n3)ccc12
A: T

Q: Please state the recorded outcome for this compound: Cn1cnc(=N)c2[nH]cnc21
A: T

Q: Please state the recorded outcome for this compound: O=C1NC(O)CCN1[C@@H]1O[C@H](CO)[C@H](O)[C@H]1O (some centres not stated)
A: T

Q: Please state the recorded outcome for this compound: CCS(=O)(=O)Nc1ccc2[nH]c(O)c(C(=Nc3ccc(CN4CCCCC4)cc3)c3ccccc3)c2c1
A: T

Q: Please state the recorded outcome for this compound: Nc1nc(=O)n([C@H]2C[C@H](O)[C@@H](CO)O2)cc1F
A: F

Q: Please state the recorded outcome for this compound: Nc1cccc2c1C(=O)N(C1CCC(=O)NC1=O)C2=O (configuration not stated)
A: F

Q: Please state the recorded outcome for this compound: CCCCCCCCCCCCCCCC(=O)OC[C@@H](NC(=O)C(Cl)Cl)[C@H](O)c1ccc([N+](=O)[O-])cc1
A: F

Q: Please state the recorded outcome for this compound: CC(C)(N)c1ccc(-c2nc3ccccc3nc2-c2ccccc2)cc1
A: T

###

- PROTOCOL_NOTES: Quantitative High-Throughput drug screen in 47 multiple myeloma cell lines against the NCATS MIPE library collection: KMS12BM_JCRB cell viability assay (AID 1918971); further: nearly all actives have a fitted effect of over 35% in size; further: potency means the concentration at half of the fitted maximal effect
- PROTOCOL_CONDITIONS: KMS12BM myeloma viability, CellTiter-Glo ATP, 48 h; series mostly up to 45.8 µM
Records with an inconclusive call do not appear. Calls of active or inactive are those of the source. Calls come from the whole dose curve; as a rule, active = well fitted cell-killing curve with a large enough effect; inconclusive = small, poorly fitted or top-dose-only effect, or effect the other way; inactive = no such curve, though single readings can be large or run the other way.
MEASUREMENT_NAME: Potency

CCn1c(=O)c2c(nc(C=Cc3ccc(OC)c(OC)c3)n2C)n(CC)c1=O    inactive
O=C1NCCc2[nH]c(-c3ccncc3)cc21    3.72 µM (active)
CCc1cnn2c(NCc3ccc[n+]([O-])c3)cc(N3CCCC[C@@H]3CCO)nc12    0.0264 µM (active)
Cc1nc(NC(=O)N2CCC[C@@H]2C(N)=O)sc1-c1ccnc(C(C)(C)C(F)(F)F)c1    10.5 µM (active)
NC1=N[C@H]2[C@H](CS[C@H]2CCCCC(=O)O)N1    inactive

Q: Give reported Potency value for CNC(=O)c1ccc(Nc2cc(Nc3ccccc3S(=O)(=O)C(C)C)c3cc[nH]c3n2)nc1
A: 16.6 µM (active)

###

- PROTOCOL_NOTES: qHTS for identification of novel therapeutic agents for treatment of microphthalmiaassociated transcription factor (MiT) renal cell carcinoma (RCC) (AID 1963991);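 further: curves scaled with 100% = DMSO viability and 0% = empty wells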
- PROTOCOL_CONDITIONS: TFE3-RCC viability, CellTiter-Glo, 48 h; measured here: UOK145 Z-AUC; stronger effect = lower value
Inconclusive results are not listed.
MEASUREMENT_NAME: z-score
Keep it simple and answer with nothing but the number.

Solved cases (4 shown):
O=C1NC(O)CCN1[C@@H]1O[C@H](CO)[C@H](O)[C@H]1O (some centres undefined)    0.58
C[C@H](CCC(=O)O)[C@H]1CC[C@H]2[C@@H]3[C@H](O)C[C@@H]4C[C@H](O)CC[C@]4(C)[C@@H]3CC[C@]12C    0.171
Cn1cc(-c2ccc3ncc(Cc4ccc5ncccc5c4)n3n2)cn1    -0.113
CC(=O)OC[C@@H]1O[C@@H](n2ccc(=O)[nH]c2=O)[C@H](OC(C)=O)[C@H]1OC(C)=O    0.244

Q: Give reported z-score value for CCOc1cc2ncc(C#N)c(Nc3ccc(OCc4ccccn4)c(Cl)c3)c2cc1NC(=O)C=CCN(C)C
A: -1.43

Q: Give reported z-score value for C[C@H]1C[C@H]2[C@@H]3CCC4=CC(=O)C=C[C@]4(C)[C@@H]3C(=O)C[C@]2(C)[C@@]1(O)C(=O)CO
A: 1.74

Q: Give reported z-score value for C=CC(=O)Nc1cccc(Nc2nc(NC3CCC(N(C)C)CC3)nc3c2ncn3C(C)C)c1 (centres undefined)
A: -1.36

Q: Give reported z-score value for Cn1cc(CNCC2CCN(c3ncc(C(=O)NO)cn3)CC2)c2ccccc21
A: -1.68

Q: Give reported z-score value for C[C@H](O)[C@@H]1C(=O)N2C(C(=O)O)=C(S[C@@H]3CN[C@H](CNS(N)(=O)=O)C3)[C@@H](C)[C@@H]12
A: -1.41

Q: Give reported z-score value for CC(Oc1ccc(O)cc1)(P(=O)(O)O)P(=O)(O)O
A: 0.233
